Data provenance: the nanobody polyreactivity screen of Harvey et al. (2022)

assay: yeast display, Sf9 membrane polyspecificity reagent, FACS + sequencing; frameworks hold sequencing errors
readout: polyreactivity (PSR sort gate)

// below: answered sequences
| entry sequence | polyreactivity (PSR sort gate) |
| --- | --- |
| QVQLVESGGGLVQAGGSLPLSCAASGSISGLNARGWSRQAPGTEREMVAAISRSGTRRYYADSVKGRFTISRDNEKNTVYLQMNSLKPEDSAVYYCAVQYAVAVGRYNYWGQGTQVTVSS | high polyreactivity |
| QVQLVESGGRLVQAGGSLRLSCAASGRTFRPYAMGWYRQAPGKERELVAAISSRGSSTYYADSVKGRFTISRDNAKNTVYLQMNSLKPEDTAVYYCAARSYWGGLRYDYWGQGTQVTVSS | high polyreactivity |
| QVQLVESGGGLVQAGGTLRLSCAPSGSIFTFYAMGWYRQAPGKERELVAAITRSGGSTYYADSVKGRFTISRDNAKNTVYLQMNSLKPEDTAVYYCAKDPSSYVTYRYYYWGQGSQVTVSS | low polyreactivity |
| QVQLEESGRGLVQAGGSLRLSCAASGFTFRIYAMGWYRQAPGKGREFVAAITWSSGSTYYADSVKGRFTISRDNAKITVYLQMNSLKPEDTAVYYCAATYRFFPPRYYYWGQGTQVTVSS | high polyreactivity |
| QVQLVESGAGLVQAGGSLRLSCDASGLIFAGYAMGWYRQAPGTERELVAAITWRGGRTYADSVKGRFTISRDNAKNTVYLQINSLKPEDTAVYYCNKDPWYVFHPRGQFLFDYWGQGTQVTVSS | low polyreactivity |

Asked: // polyreactivity (PSR sort gate) lookup, key: QVQLVESGGGLFQAGGSLRLSCAASGFIFRDNAMGWYRQAPGKERELVAAISWSSDSTYYADSVKGRFTISRDNEKNTVYLQMNSLNPEDSAVYYCAGKGQRGYWWGFDYWGQGTQVTVSS
Given back: low polyreactivity

Asked: // polyreactivity (PSR sort gate) lookup, key: QVQLVESGGGLVQAGGSLRLSCADSGRTFRIYAMGLYIQAPGKERELVAAITRRGGSTYYADSVKGRFTISRDNAKNTVYLQMNSLKPEDTAVYYCAADLRYGYLYPYDSWGQGTQVTVSS
Given back: high polyreactivity

Asked: // polyreactivity (PSR sort gate) lookup, key: QVQLVESGGGLVQAGGSLRLSCAASGRTFVYYAMGWYRQAPGKERELVAAISSRGGSTYYADSVKGRFTISRDYAKNTVYLQMNSLKPEDTAVYYCAARARRRYYYWGQGTQVTVSA
Given back: high polyreactivity

----------
assay: yeast display, Sf9 membrane polyspecificity reagent, FACS + sequencing; frameworks hold sequencing errors

| entry sequence | polyreactivity (PSR sort gate) |
| --- | --- |
| QVQLQESGGGLVQAGGSLRLSCAASGTIFWLWAMGWYCKAPGKERELVASISSGGTTYHADSVKGRFTISRDNAKNTVYLQMNSLKPEDTAVYYSAAFYVATAKLGYWGQGSQVTVSS | low polyreactivity |
| QVQLVESGGGLVQAGGSLRLSCAASGSTFSYNAMGWYRQAPRKERELVAAISNTGSTYYADSVKGRFTISRDNAKNTVYLQMYSVKPEDSAVYYCAALWVHKRRQNSAHYDSWGQGTQVTVSS | low polyreactivity |
| QVQLVESGGGLVQAGGSLRLSCAASGRIFSIYGMGWSRQAPGKEREFVASITYSGGSTYYADSVKGRFTISRDNAKNTVYLQMNSLQPEDTAVYYCAKYVFSAYDYWGQGTLVTVSS | low polyreactivity |

----------
assay: yeast display, Sf9 membrane polyspecificity reagent, FACS + sequencing; frameworks hold sequencing errors
readout: polyreactivity (PSR sort gate)

| entry sequence | readout | experimental result |
| --- | --- | --- |
| QVQLVESGGGLVQAGGSLRLSCAASGRTFYYNDMGWYRQAPGKERELVAAISWSGVSTSYADSVKGRFTISRDNAKNTVYLQMNSLKPEDTAVYYCAADNDGWYFHITEYDYWGQGTQVTVSS | polyreactivity (PSR sort gate) | low polyreactivity |
| QVQLVESGGGLVQAGGSLRLSCAASGSTFAAYVMGWYRQAPGKERELVAAISTSGGRTYYADSVKGRFTISRDNAMNTVYLQMNSLIPEDTAVYYCAKKRINSRKYDYWGQGTQVNVSS | polyreactivity (PSR sort gate) | low polyreactivity |

----------
experiment: yeast display, Sf9 membrane polyspecificity reagent, FACS + sequencing; frameworks hold sequencing errors
readout: polyreactivity (PSR sort gate)

// below: answered sequences
| entry sequence | polyreactivity (PSR sort gate) |
| --- | --- |
| QVQLVESCGGLVQAGGSLRLSCAASGFIFWCYTMGWYIQAPGKERELVAAITGSGGSTYYADSVKGRFTISRDNAKNTVNFQMNSLKPEDTAVYYCNAVSAYKWEYYYWGQGTLVTVSS | high polyreactivity |
| QVQLVESGGGLVQAGGSLRLSCAASGFTFGIYAMGWYRQAPGKERELVAAISRGGGSTYYADSVKGRFTISRDNAKNTVYLQMNSLKPEDTAVYYCAARYQSPYDYWGQGTQVTVSS | high polyreactivity |
| QVQLVESGGGLVQAGGSLRLSCAASGRTFARYAMGWYRQAPGKERELVAAISWSGGSTYYADSVKGRFTISRDNAKNTVYLQMNSLKPEDTAVYYCAAGYGARSAIFDVYGTNEGDYWGQGTQVTVSS | high polyreactivity |
| QVQLVESGGGLVQAGASLRLSCAASGSIFRRNAMGWYRQAPGKERELVAAISYRGGSTNYADSVKGRFTISRDNAKNTVYLQMNSLKPEDTAVYYCAAKIYRSSGQGMDYWGQGTQVTVSS | low polyreactivity |
| QVQLVESGGGLVQAGGSLRLSCAASGRILYSYAMGWYRQAPGKEREFVADIRRSGGSTYYADSVKGRFTISRDNAKNTVYLQMNSLKPEDTAVYYCAKSQSAKGGYDYWGQGTQVTVSS | high polyreactivity |
| QVQLVESGGGLVQAGGSLRLSCAASGITFGSYAMGRYRQAPGKERELVAAIDTSGDDTYYADSVKGRFTISRDNAKNTVYLQMNSLKPEDTAVYYCAAEFPSAEVDYWGQGTQVTVSS | low polyreactivity |

Asked: // polyreactivity (PSR sort gate) lookup, key: QVQLVESGGGLVQAGGSLRLSCAASGITSSTYAMGWYRQAPGKERELVAAISLSGSSTNYADSVKGRFTISRDNAKNTVYLQMNSLKPEDTAVYYCAATNYRTYPYGYWGQGTQVTVSS
Given back: high polyreactivity

Asked: // polyreactivity (PSR sort gate) lookup, key: QVQLVESGGGLVQAGGSLRLSCAASGSIIASNAMGWYRHAPWKERELVAAITNGGRTNYADSVKGRFTISRDNAKNTVYLQMNSMKPEDTAVYYCDALWSRCAGFEYCGQGTQVTVSS
Given back: high polyreactivity

Asked: // polyreactivity (PSR sort gate) lookup, key: QVQLVESGGGLVQAGGSLRLSCAASGFISDVYAMGCYRQAPGKERELVAVITWRGSTYYAYSVKGRFTISRDNAKNTVYLQMNSLKPEDTAVYYCAAESQGDWAFDYWGQGTQVTVSS
Given back: low polyreactivity

----------
assay: yeast display, Sf9 membrane polyspecificity reagent, FACS + sequencing; frameworks hold sequencing errors
readout: polyreactivity (PSR sort gate)

// below: answered sequences
| entry sequence | polyreactivity (PSR sort gate) |
| --- | --- |
| QVQLVESGVGLVQAGGTLRISCAASGRISRGYAMGWYRQAPGKERELVAAISRRGDSTYYADSVKGRFTISRDNAKYTVYLQMNSLKPEDTAVYYCAARNGGRYAAGLDYWGQGTHVTVSS | high polyreactivity |
| QVQLVESGRGLVQAGGSLRLSCAASGRIFRVNAMGWYRQAPGKERELVAAISWGGGSTYYADSVKGRFTISRDNAKNTVYLQMNSLKPEDTAVYYCATTLVKSQSRYYYWGQGTQVTVSS | high polyreactivity |
| QVQLVESGGGLVQAGGSLRLSCAASGRIFLYYAMGWYRQAPGKERDFVAAITYIGGSTYYADSVKGRFTISRDNAKNTVYLQMNSLKPEDTAVYDCATDGYRIDVYHPVYRYDYWGQGTQVTVSS | low polyreactivity |
| QVQLVESGGGLVQAGGSLRLSCAASGSIIPLYAMGWYRQPPGKERELVAAITSNGGRTYYADSVKGRFTISRDNAKNTVYLQMNSLKPEDTAVYYCNKYLLDYRRGRSDYWGQGTQVTVSS | low polyreactivity |

Asked: // polyreactivity (PSR sort gate) lookup, key: QVQLVESGGGLVQAGGSLRLTCAASGSTFSPYAMGWYRQATGKERELVAAISASGGGTYYADSVKGRFTISRDYAKNTVYLQMNRLIPVDTAVYYCARDYGWDISKGRYGYWGQGTQVTVSS
Given back: low polyreactivity

----------
test: yeast display, Sf9 membrane polyspecificity reagent, FACS + sequencing; frameworks hold sequencing errors
readout: polyreactivity (PSR sort gate)

| entry sequence | readout | experimental result |
| --- | --- | --- |
| QVQLVESGGGLVQAGGSLRLSCAASGRTFHYYVRGWSRQAPGKERELVAAISRSGGNTYYADSVKGRFTISRDNAKNTVYLQMNSLKPEDTAVNYCAAALSAYVKWDYYYWGQGTQVTVSS | polyreactivity (PSR sort gate) | low polyreactivity |
| QVQLVESGGGLVQAGGSLRISCAASGSTFWYYAMGWYRQAPGKERELVAVINSGGITNYADSVKGRFTISRDNAKNTVYLQMNSLKPEDTAVYYCNKRLYWGYGEMDYWGQGTQVTVSS | polyreactivity (PSR sort gate) | low polyreactivity |
| QVQLVESGGGLVQAGGSLRLSCAASGSIFSFYAMGWYRQAPGKERELVAAITSDGSTDYADSVKGRFTISRDNAKNTVYLQMNSLKPEDTAVYYCAADYIVRVVSRYRYGYEYWGQGTQVTVSL | polyreactivity (PSR sort gate) | low polyreactivity |
| QVQLVESGGGLVQAGGSLRLSCAASGLIFKYNAMGWYRQAPGKERELVAAITWSGGITYADSVKGRFTISRDNAKNTVYLQMNSLKPEDTAVYYCAARGYWQPRPRRRYDYWGQGTQVTVSS | polyreactivity (PSR sort gate) | high polyreactivity |
| QVQLQDSGSGLVQAGGSLRLSCAASGAIFPAYLMVSYRQAPGKERELVAGISYGSITYCADSVKGRFNISRDNAKNTVYLQMNSLKPEDTAVYYCAVWRPGGDEYYYWGQGTQVTVSS | polyreactivity (PSR sort gate) | low polyreactivity |
| QGQLVESGGGLVQAGGSLRLSCAASGITYYKYVMAWYIQAPGKERELVAAISRSSGSTYYADSVKGRFTISRDNAKNTVYLQMNSLKPEDTAVYYCARDQGKLVVPYDYWGQGTQVTVSS | polyreactivity (PSR sort gate) | high polyreactivity |
| QVQLVESGGGLVQAGCSLRLSCAASGRIFWDNAMGWYRQAPGKERELVAAIDYRGGNTNYADSVKGRFTISRDNAKNTVYLQMNSLKPEDTAVYYCNAEWAVRYPGYDYWGQGTQVTVSS | polyreactivity (PSR sort gate) | low polyreactivity |
| QVQLVESGGGLVQAGGSLRLSCAASGFTFHRNAMGWYRQAPGKERELVAAITLNGGSSTYYADSVKGRFTISRDNAKNTVYLQMNSLKPEDTAVYYCARDSYSYTFSKNSDPAEYDYWGQGTQVTVSS | polyreactivity (PSR sort gate) | low polyreactivity |

Asked: // polyreactivity (PSR sort gate) lookup, key: QVQLVESGGGLVQAGGSLRLSCAASGRTFGVKAMGWYRQAPGKERELVAAITSGGTTNYADSVKGRFTISRDNAKNTFYLQMNSLKPEDTAVYYCAARSYYPRYGYWGQGTQVTVSS
Given back: high polyreactivity
